- Test system: LoVo
- assay remarks: SRB colorimetric assay of cell growth and viability, LoVo
- Assay type: cell-based, human
- applied conditions: LOVO; 48 hours exposure
- Procedure: The finality of this assay is to interrupt the growth of a “in vitro” tumor cell culture by means a continued exhibition of the cells to the sample to be testing. […] Cells are seeded in 96 well microtiter plates, at 5×10^3 cells per well in aliquots of 195 μL medium, and they are allowed to attach to the plate surface by growing in drug free medium for 18 hours. […] Optical densities are read on a automated spectrophotometric plate reader at a single wavelength of 490 nm. […]

molecule: C/C=C1\NC(=O)[C@H](Cc2ccc(Cl)cc2)NC(=O)[C@@H](C(C)C)NC(=O)[C@@H]([C@@H](C)CC)NC(=O)[C@H](NC(=O)[C@H](NC(=O)[C@H](CCCN)NC(=O)[C@H]2CCCN2C(=O)[C@H](NC(=O)[C@@H](NC(=O)[C@@H](NC(=O)[C@H](NC(=O)CCCC(C)C)C(C)C)[C@@H](C)O)C(C)C)C(C)C)[C@@H](C)CC)[C@@H](C)OC(=O)[C@H](C(C)C)NC1=O [Compound 83, [Phe(4-Cl)^3]-KF]
TGI LOVO [Molar]: 6.27E−08
--
molecule: [2H]C([2H])([2H])C([2H])(C([2H])([2H])[2H])[C@]([2H])(NC(=O)[C@@H](NC(=O)[C@H](NC(=O)CCCC(C)C)C(C)C)[C@@H](C)O)C(=O)N[C@@H](C(=O)N1CCC[C@@H]1C(=O)N[C@@H](CCCN)C(=O)N[C@@H](C(=O)N[C@H]1C(=O)N[C@H]([C@@H](C)CC)C(=O)N[C@H](C(C)C)C(=O)N[C@@H](Cc2ccccc2)C(=O)N/C(=C\C)C(=O)N[C@@H](C(C)C)C(=O)O[C@@H]1C)[C@@H](C)CC)C(C)C [Compound 100, [L-Val-d8^11]-KF]
TGI LOVO [Molar]: 6.38E−07

* * *

- Test system: PANC-1
- assay remarks: SRB colorimetric assay of cell growth and viability, PANC-1
- Assay type: cell-based, human
- applied conditions: PANC-1; 48 hours exposure
Where a SMILES comes first, the peptide text is derived from it. Bridges are numbered along the chain shown (N, C = ends). [ ]: non-standard residue; d: D form. The star is where a group is joined. Bip = N[C@@H](Cc1ccc(-c2ccccc2)cc1)C(=O)O; 2Nal = N[C@@H](Cc1ccc2ccccc2c1)C(=O)O; d(aIle) = CC[C@H](C)[C@@H](N)C(=O)O; d(aThr) = C[C@@H](O)[C@@H](N)C(=O)O; Hexanoyl(5-Me) = CC(C)CCCC(=O)*; Orn = NCCC[C@H](N)C(=O)O; Dhb = C/C=C(\N)C(=O)O
This section presents compounds with their documented TGI PANC-1 values.
property label: TGI PANC-1 (Molar)

compound: C/C=C1\NC(=O)[C@H](Cc2ccc(Cl)cc2)NC(=O)[C@@H](C(C)C)NC(=O)[C@@H]([C@@H](C)CC)NC(=O)[C@H](NC(=O)[C@H](NC(=O)[C@H](CCCN)NC(=O)[C@H]2CCCN2C(=O)[C@H](NC(=O)[C@@H](NC(=O)[C@@H](NC(=O)[C@H](NC(=O)CCCC(C)C)C(C)C)[C@@H](C)O)C(C)C)C(C)C)[C@@H](C)CC)[C@@H](C)OC(=O)[C@H](C(C)C)NC1=O [Compound 83, [Phe(4-Cl)^3]-KF]
measurement units: Molar
observed: 1.07E−06

compound: C/C=C1\NC(=O)[C@H](Cc2ccccc2)NC(=O)[C@@H](C(C)C)NC(=O)[C@@H]([C@@H](C)CC)NC(=O)[C@H](NC(=O)[C@H](NC(=O)[C@H](CCCNC(=O)CCCC[C@@H]2SC[C@@H]3NC(=O)N[C@@H]32)NC(=O)[C@H]2CCCN2C(=O)[C@H](NC(=O)[C@@H](NC(=O)[C@@H](NC(=O)[C@H](NC(=O)CCCC(C)C)C(C)C)[C@@H](C)O)C(C)C)C(C)C)[C@@H](C)CC)[C@@H](C)OC(=O)[C@H](C(C)C)NC1=O [Compound 99, [Orn(Biot)^8]-Kahalalide F]
measurement units: Molar
observed: 3.50E−06

compound: C/C=C1\NC(=O)[C@H](Cc2ccccc2)NC(=O)[C@@H](C(C)C)NC(=O)[C@@H]([C@@H](C)CC)NC(=O)[C@H](NC(=O)[C@H](NC(=O)[C@H](CCCN)NC(=O)[C@H]2CCCN2C(=O)[C@H](NC(=O)[C@@H](NC(=O)[C@H](CCC(=O)O)NC(=O)[C@H](NC(=O)CCCC(C)C)C(C)C)C(C)C)C(C)C)[C@@H](C)CC)[C@@H](C)OC(=O)[C@H](C(C)C)NC1=O [Compound 115, [Glu^12]-KF] ({Hexanoyl(5-Me)}-[dV]EV[dV][dP][Orn][d(aIle)][d(aThr)][d(aIle)][dV]F[Dhb]V; ester 8-C)
measurement units: Molar
observed: 6.64E−06

compound: [2H]C([2H])([2H])C([2H])(C([2H])([2H])[2H])[C@]([2H])(NC(=O)[C@@H](NC(=O)[C@H](NC(=O)CCCC(C)C)C(C)C)[C@@H](C)O)C(=O)N[C@@H](C(=O)N1CCC[C@@H]1C(=O)N[C@@H](CCCN)C(=O)N[C@@H](C(=O)N[C@H]1C(=O)N[C@H]([C@@H](C)CC)C(=O)N[C@H](C(C)C)C(=O)N[C@@H](Cc2ccccc2)C(=O)N/C(=C\C)C(=O)N[C@@H](C(C)C)C(=O)O[C@@H]1C)[C@@H](C)CC)C(C)C [Compound 100, [L-Val-d8^11]-KF]
measurement units: Molar
observed: 1.88E−06

compound: C/C=C1\NC(=O)[C@H](Cc2ccccc2)NC(=O)[C@@H](C(C)C)NC(=O)[C@@H]([C@@H](C)CC)NC(=O)[C@H](NC(=O)[C@H](NC(=O)[C@H](CCCN)NC(=O)[C@H]2CCCN2C(=O)[C@H](NC(=O)[C@@H](NC(=O)[C@@H]2CCCN2C(=O)[C@H](NC(=O)CCCC(C)C)C(C)C)C(C)C)C(C)C)[C@@H](C)CC)[C@@H](C)OC(=O)[C@H](C(C)C)NC1=O [Compound 117, [Pro^12]-KF] ({Hexanoyl(5-Me)}-[dV]PV[dV][dP][Orn][d(aIle)][d(aThr)][d(aIle)][dV]F[Dhb]V; ester 8-C)
measurement units: Molar
observed: 6.78E−06

compound: C/C=C1\NC(=O)[C@H](Cc2ccccc2Cl)NC(=O)[C@@H](C(C)C)NC(=O)[C@@H]([C@@H](C)CC)NC(=O)[C@H](NC(=O)[C@H](NC(=O)[C@H](CCCN)NC(=O)[C@H]2CCCN2C(=O)[C@H](NC(=O)[C@@H](NC(=O)[C@@H](NC(=O)[C@H](NC(=O)CCCC(C)C)C(C)C)[C@@H](C)O)C(C)C)C(C)C)[C@@H](C)CC)[C@@H](C)OC(=O)[C@H](C(C)C)NC1=O [Compound 81, [Phe(2-Cl)^3]-KF]
measurement units: Molar
observed: 1.84E−06

compound: C/C=C1\NC(=O)[C@H](Cc2ccc3ccccc3c2)NC(=O)[C@@H](C(C)C)NC(=O)[C@@H]([C@@H](C)CC)NC(=O)[C@H](NC(=O)[C@H](NC(=O)[C@H](CCCN)NC(=O)[C@H]2CCCN2C(=O)[C@H](NC(=O)[C@@H](NC(=O)[C@@H](NC(=O)[C@H](NC(=O)CCCC(C)C)C(C)C)[C@@H](C)O)C(C)C)C(C)C)[C@@H](C)CC)[C@@H](C)OC(=O)[C@H](C(C)C)NC1=O [Compound 85, [Nal^3]-KF] ({Hexanoyl(5-Me)}-[dV]TV[dV][dP][Orn][d(aIle)][d(aThr)][d(aIle)][dV][2Nal][Dhb]V; ester 8-C)
measurement units: Molar
observed: 1.04E−06

compound: C/C=C1\NC(=O)[C@H](Cc2ccc(-c3ccccc3)cc2)NC(=O)[C@@H](C(C)C)NC(=O)[C@@H]([C@@H](C)CC)NC(=O)[C@H](NC(=O)[C@H](NC(=O)[C@H](CCCN)NC(=O)[C@H]2CCCN2C(=O)[C@H](NC(=O)[C@@H](NC(=O)[C@@H](NC(=O)[C@H](NC(=O)CCCC(C)C)C(C)C)[C@@H](C)O)C(C)C)C(C)C)[C@@H](C)CC)[C@@H](C)OC(=O)[C@H](C(C)C)NC1=O [Compound 86, [Bip^3]-KF] ({Hexanoyl(5-Me)}-[dV]TV[dV][dP][Orn][d(aIle)][d(aThr)][d(aIle)][dV][Bip][Dhb]V; ester 8-C)
measurement units: Molar
observed: 2.17E−06
